TESTED TARGET: NOS1, P29475
Sequence (P29475 9-101): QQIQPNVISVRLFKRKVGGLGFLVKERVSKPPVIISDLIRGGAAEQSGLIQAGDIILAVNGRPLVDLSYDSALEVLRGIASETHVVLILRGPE
PROTOCOL: holdup assay
Parameters: key: below the threshold = too weak to quantify, mostly under pKd 3.1 to 4
REPORTED CONDITIONS: plain residues with an end cap or a label only (N-terminal biotin on a linker: ttds)
Form field: pKd (one value per entry).

Field: example entries. Status: answers known.
BINDER | OBSERVED MEASUREMENT
GARVSKETPL [MAPK12, P53778] | 3.82
SRSRRRETAL [HPV33-E6, P06427] | 4.03
PSRDRKETSI [RALBP1, Q15311] | 3.52
SHSSKGETAV [FZD7, O75084] | 4.41
FVETQHQTQV [FAT3, Q8TDW7] | 3.95

Moving on to another binder below.
So what's the measured pKd for this one? SSIDLWETAL [SLC15A5, A6NIM6]
4.36
